Provide the reported CD28 scFv signal of each item.
# Measurement target: T1, Anti-CD28 scFv (VH - linker 1 - VL) (biotinylated (site not stated))
# T1 construct: Biotinylated anti-CD28 scFv captured on neutravidin coated plates in the panning ELISA
# T1 sequence (scFv, as listed by the source): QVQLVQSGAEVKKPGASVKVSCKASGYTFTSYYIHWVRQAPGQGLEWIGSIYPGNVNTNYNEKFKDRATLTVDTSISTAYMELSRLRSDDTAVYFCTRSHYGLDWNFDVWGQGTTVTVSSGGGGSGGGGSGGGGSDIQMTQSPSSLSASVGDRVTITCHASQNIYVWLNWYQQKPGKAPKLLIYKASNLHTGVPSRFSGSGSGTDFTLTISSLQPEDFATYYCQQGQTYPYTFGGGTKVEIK
# Procedure text: phage ELISA; biotinylated anti-CD28 scFv on neutravidin plate, clonal phage supernatant, anti-M13-HRP;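 further: before the phage were added, wells were pre-incubated with soluble CD28 protein in blocking buffer, or with blocking buffer alone, and were not washed in between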
One number for each entry.

Examples with answers:
binder="MFWCPITLWNECFN (Clonal phage of the Peptide-9 library) [Phage-326]" endpoint_name="CD28 scFv signal" reported_value=2.15
binder="MDWCPRSLWNYCFA (Clonal phage of the Peptide-9 library) [Phage-316]" endpoint_name="CD28 scFv signal" reported_value=2.32
binder="MDWCPRALWNVCFA (Clonal phage of the Peptide-9 library; also called the position column gives N at position 14)) [Phage-329]" endpoint_name="CD28 scFv signal" reported_value=2.14
binder="MSWCPRDLWHLCFF (Clonal phage of the Peptide-9 library) [Phage-319]" endpoint_name="CD28 scFv signal" reported_value=2.27

Can you give me CD28 scFv signal for all of these, one by one?
1. MDWCPRYLWDECFS (Clonal phage of the Peptide-9 library) [Phage-334]
2. MDWCPRHLWDECFY (Clonal phage of the Peptide-9 library) [Phage-331]

## Output
1: 2.06; 2: 2.13

Can you give me CD28 scFv signal for all of these, one by one?
1. MDWCPRFLWDYCFA (Clonal phage of the Peptide-9 library) [Phage-335]
2. MHWCPRDLWHVCFN (Clonal phage of the Peptide-9 library) [Phage-327]
3. MDWCPTYLWNVCFA (Clonal phage of the Peptide-9 library) [Phage-323]

## Output
1. 2.03
2. 2.15
3. 2.21
